Target: T1, NSP2 (Rotavirus (strain  in …, UniProt A2T3N6 1-317))
T1 sequence: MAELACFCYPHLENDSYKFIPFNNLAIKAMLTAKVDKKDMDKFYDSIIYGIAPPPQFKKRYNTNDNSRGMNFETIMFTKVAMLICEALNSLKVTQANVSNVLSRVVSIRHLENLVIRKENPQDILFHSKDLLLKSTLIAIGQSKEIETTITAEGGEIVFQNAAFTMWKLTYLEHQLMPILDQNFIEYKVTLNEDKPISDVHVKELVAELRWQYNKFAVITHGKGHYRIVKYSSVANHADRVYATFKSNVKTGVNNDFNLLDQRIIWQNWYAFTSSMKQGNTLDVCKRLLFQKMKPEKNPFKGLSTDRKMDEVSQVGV
Experiment: fluorescence anisotropy; 10 mM MgCl2
Settings: protein: recombinant; chain copies: 8; label: 5' AlexaFluor488; unstructured, MFE 0
measurement label: pKd
Interpret pKd as the negative base-10 log of the concentration measured in mol/L.

Please report the recorded pKd for CUUUUCAAGACAUGCAACAA (ssRNA) [unstructured 20mer] .
7.55
